Test system: HT-29
Assay: NCI tumour cell line growth inhibition, 48 h
Calls of active or inactive are those of the source. Cut-off read from the data, not from the text of the source: active = GI50 up to about 1.1 µM and inactive = higher.
PARAMETER MEASURED: GI50

Worked cases, GI50 given:
COMPOUND: O=c1c2ccc(Br)cc2nc(-c2ccccc2)n1NC1OC(CO)C(O)C(O)C1O (centres undefined)
PARAMETER MEASURED: GI50
EXPERIMENTAL VALUE: > 100 µM (inactive)

COMPOUND: CCOC(=O)/C=C/n1c2ccccc2c(=O)c2cc(OC)ccc21
PARAMETER MEASURED: GI50
EXPERIMENTAL VALUE: 38.5 µM (inactive)

COMPOUND: COc1ccc2c(c1)[n+]([O-])c(C(=O)CC(=O)C(=O)Nc1cccc(Cl)c1C)c(C)[n+]2[O-]
PARAMETER MEASURED: GI50
EXPERIMENTAL VALUE: 83 µM (inactive)

Let's switch to this compound now.
Query block: Any idea what its GI50 is? The compound is CC(C)(C)OC(=O)C1=C(C(=O)OC(C)(C)C)SC2(S1)C(C(=O)OC(C)(C)C)=C(C(=O)OC(C)(C)C)Sc1c2ssc1=O
Result block: 86.5 µM (inactive)
